molecular target: human LTA4 hydrolase (Homo sapiens); assay: LTA4H Enzyme assay (cleavage of Arg-AMC, fluorescence); format: biochemical; settings: LTA4H Enzyme 1 nM, Arg-AMC substrate 50 μM, room temperature 1 h, fluorescence; read-out: IC50 values of LTA4H Enzyme assay
Sequence (P09960 whole entry): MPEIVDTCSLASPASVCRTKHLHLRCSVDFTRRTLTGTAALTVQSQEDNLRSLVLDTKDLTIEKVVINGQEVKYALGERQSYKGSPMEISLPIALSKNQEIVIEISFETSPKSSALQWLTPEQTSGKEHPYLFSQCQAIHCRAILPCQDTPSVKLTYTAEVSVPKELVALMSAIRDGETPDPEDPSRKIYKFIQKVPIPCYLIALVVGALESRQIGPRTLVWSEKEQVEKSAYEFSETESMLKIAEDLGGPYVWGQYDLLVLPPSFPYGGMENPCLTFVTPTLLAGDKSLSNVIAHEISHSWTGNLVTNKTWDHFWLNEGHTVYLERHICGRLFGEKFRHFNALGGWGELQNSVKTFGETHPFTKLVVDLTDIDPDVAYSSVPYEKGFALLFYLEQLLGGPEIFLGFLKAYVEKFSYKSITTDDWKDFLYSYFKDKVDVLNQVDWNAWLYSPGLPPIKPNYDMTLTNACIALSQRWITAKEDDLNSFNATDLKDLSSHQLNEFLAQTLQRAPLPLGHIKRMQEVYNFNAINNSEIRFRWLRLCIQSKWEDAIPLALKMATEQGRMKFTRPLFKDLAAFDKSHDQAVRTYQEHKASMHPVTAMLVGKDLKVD
pIC50: −log10 of the molar value.
Short version: pIC50 at least 9 is 1.0, less is 0.0.

Exercise: Does the compound OC1CCN(Cc2ccc([C@H]3COc4cccnc4O3)cc2)CC1 have recorded pIC50 that is 9 or more?
Key: 1.0

Exercise: Does the compound O=C(CO)NC1CCN(Cc2ccc([C@H]3COc4ccccc4O3)cc2)CC1 have recorded pIC50 that is 9 or more?
Key: 1.0

Exercise: Does the compound O=C(O)c1cccc(CN2CCN(Cc3ccc([C@H]4COc5ccccc5O4)cc3)CC2)c1 have recorded pIC50 that is 9 or more?
Key: 1.0

Exercise: Does the compound O=C(O)C1CCCN(Cc2ccc([C@H]3COc4ccccc4O3)cc2)CC1 (some centres unmarked) have recorded pIC50 that is 9 or more?
Key: 1.0

Exercise: Does the compound Nc1nc2c(s1)CN(Cc1ccc([C@H]3COc4cccnc4O3)cc1)CC2 have recorded pIC50 that is 9 or more?
Key: 1.0

Exercise: Does the compound CCN(Cc1ccc([C@H]2COc3ccccc3O2)cc1)C1CCCC1 have recorded pIC50 that is 9 or more?
Key: 1.0

Exercise: Does the compound CC(=O)N1C[C@@H]2C[C@H]1CN2Cc1ccc([C@H]2COc3cccnc3O2)cc1 have recorded pIC50 that is 9 or more?
Key: 1.0

Exercise: Does the compound CNC(=O)C1CCN(Cc2ccc([C@H]3COc4cccnc4O3)cc2)CC1 have recorded pIC50 that is 9 or more?
Key: 1.0

Exercise: Does the compound c1ccc2c(c1)OCC(c1ccc(CN3CCn4cnnc4C3)cc1)O2 (racemic) have recorded pIC50 that is 9 or more?
Key: 0.0

Exercise: Does the compound CCN(C)Cc1ccc([C@H]2COc3cccnc3O2)cc1 have recorded pIC50 that is 9 or more?
Key: 1.0

Exercise: Does the compound O=C(O)C1CCN(Cc2ccc([C@H]3COc4ccccc4O3)cc2)CC1 have recorded pIC50 that is 9 or more?
Key: 1.0

Exercise: Does the compound CC1CCCN1Cc1ccc([C@H]2COc3ccccc3O2)cc1 (some centres unmarked) have recorded pIC50 that is 9 or more?
Key: 1.0

Exercise: Does the compound FC1CCN(Cc2ccc([C@H]3COc4cccnc4O3)cc2)CC1 have recorded pIC50 that is 9 or more?
Key: 1.0

Exercise: Does the compound c1ccc2c(c1)OC[C@@H](c1ccc(CN3CCOCC3)cc1)O2 (single isomer, unassigned) have recorded pIC50 that is 9 or more?
Key: 0.0

Exercise: Does the compound O=C(O)C[C@H]1CCN(Cc2ccc([C@H]3COc4ccccc4O3)cc2)C1 have recorded pIC50 that is 9 or more?
Key: 1.0

Exercise: Does the compound O=C(O)CCCC1CCN(Cc2ccc([C@H]3COc4ccccc4O3)cc2)CC1 have recorded pIC50 that is 9 or more?
Key: 1.0

Exercise: Does the compound Fc1ccc2c(c1)OC(c1ccc(CN3CCCC3)cc1)CO2 (centres unmarked) have recorded pIC50 that is 9 or more?
Key: 0.0

Exercise: Does the compound O=C1NC(=O)C2(CCN(Cc3ccc([C@H]4COc5cccnc5O4)cc3)CC2)N1 have recorded pIC50 that is 9 or more?
Key: 1.0

Exercise: Does the compound CC(c1ccc([C@H]2COc3ccccc3O2)cc1)N1CCCC1 (some centres unmarked) have recorded pIC50 that is 9 or more?
Key: 0.0

Exercise: Does the compound c1ccc2c(c1)OC[C@H](c1ccc(CN(CC3CC3)C3CCCCC3)cc1)O2 have recorded pIC50 that is 9 or more?
Key: 1.0

* * *

target: human LTA4 hydrolase (Homo sapiens); assay: LTA4H Enzyme assay (cleavage of Arg-AMC, fluorescence); type: biochemical; settings: LTA4H Enzyme 1 nM, Arg-AMC substrate 50 μM, room temperature 1 h, fluorescence; read-out: IC50 values of LTA4H Enzyme assay
property: IC50 (pM)
Give the value in pM but do not write pM after it.

Exercise: Consider the compound O=C1NCCC12CCN(Cc1ccc(C3COc4ccccc4O3)cc1)CC2 (racemic) and give its measured IC50.
Key: 740

Exercise: Consider the compound O=C(O)C1CCC(C2CCN(Cc3ccc([C@H]4COc5cccnc5O4)cc3)CC2)CC1 (some centres unmarked) and give its measured IC50.
Key: 160

Exercise: Consider the compound c1ccc2c(c1)OC[C@H](c1ccc(CN3CCC[C@H]4CCCC[C@@H]43)cc1)O2 and give its measured IC50.
Key: 450

Exercise: Consider the compound C[C@H](O)CNC(=O)[C@H]1[C@@H]2CN(Cc3ccc([C@H]4COc5cccnc5O4)cc3)C[C@@H]21 and give its measured IC50.
Key: 170

Exercise: Consider the compound CN1CCCC2(CCN(Cc3ccc([C@H]4COc5ccccc5O4)cc3)CC2)C1=O [Example 120] and give its measured IC50.
Key: 510

Exercise: Consider the compound OC(C1CCN(Cc2ccc([C@H]3COc4ccccc4O3)cc2)CC1)C(F)(F)F (some centres unmarked) and give its measured IC50.
Key: 4430

Exercise: Consider the compound c1ccc2c(c1)OC[C@H](c1ccc(CNC3CCCOC3)cc1)O2 (some centres unmarked) and give its measured IC50.
Key: 2400

Exercise: Consider the compound NC(=O)NCC1CCN(Cc2ccc([C@H]3COc4cccnc4O3)cc2)CC1 and give its measured IC50.
Key: 360

Exercise: Consider the compound CN(CCc1ccccn1)Cc1ccc([C@H]2COc3cccnc3O2)cc1 and give its measured IC50.
Key: 180

Exercise: Consider the compound CC(C)(C)C(CC(=O)O)NCc1ccc([C@H]2COc3ccccc3O2)cc1 (some centres unmarked) and give its measured IC50.
Key: 1360

Exercise: Consider the compound OCCCC1CCN(Cc2ccc([C@H]3COc4cccnc4O3)cc2)CC1 and give its measured IC50.
Key: 240

Exercise: Consider the compound O=C(O)C1CCN(Cc2ccc([C@@H]3COc4ccccc4O3)cc2)CC1 and give its measured IC50.
Key: 1590

Exercise: Consider the compound O=C(O)c1ccc(C2CCN(Cc3ccc([C@H]4COc5ccccc5O4)cc3)CC2)cc1 and give its measured IC50.
Key: 220

Exercise: Consider the compound N#CCN1CCN(Cc2ccc([C@H]3COc4cccnc4O3)cc2)CC1 and give its measured IC50.
Key: 3900

Exercise: Consider the compound c1ccc2c(c1)OCC(c1ccc(CN3CCCC3)cc1)O2 (racemic) and give its measured IC50.
Key: 380

Exercise: Consider the compound CC(C)(O)C1CCN(Cc2ccc(C3COc4ccccc4O3)cc2)CC1 (racemic) and give its measured IC50.
Key: 3400

Exercise: Consider the compound CC(C)(C)NCc1ccc(C2COc3ccccc3O2)cc1 (racemic) and give its measured IC50.
Key: 5200

Exercise: Consider the compound O=C(NCCO)C1CCN(Cc2ccc([C@H]3COc4ccccc4O3)cc2)CC1 and give its measured IC50.
Key: 220

Exercise: Consider the compound CC1CCCCN1Cc1ccc([C@H]2COc3ccccc3O2)cc1 (some centres unmarked) and give its measured IC50.
Key: 100

Exercise: Consider the compound O=C1CCC2(CCN(Cc3ccc([C@H]4COc5ccccc5O4)cc3)C2)N1 (some centres unmarked) and give its measured IC50.
Key: 230

Exercise: Consider the compound O=C(CO)NC1CCN(Cc2ccc([C@H]3COc4cccnc4O3)cc2)CC1 and give its measured IC50.
Key: 140

Exercise: Consider the compound O=C1CCCN1CC1CCCN(Cc2ccc(C3COc4ccccc4O3)cc2)C1 (racemic) and give its measured IC50.
Key: 750

Exercise: Consider the compound O=C1CCCN1CC1CCN(Cc2ccc(C3COc4ccccc4O3)cc2)CC1 (racemic) and give its measured IC50.
Key: 600

Exercise: Consider the compound CCCNCc1ccc([C@H]2COc3ccccc3O2)cc1 and give its measured IC50.
Key: 3650

Exercise: Consider the compound OC[C@@H]1CCCC[C@H]1NCc1ccc([C@H]2COc3ccccc3O2)cc1 and give its measured IC50.
Key: 1400

Exercise: Consider the compound CN(C)CCN(Cc1ccc([C@H]2COc3ccccc3O2)cc1)C1CCCCC1 and give its measured IC50.
Key: 180

Exercise: Consider the compound CN1CCC2(CCN(Cc3ccc([C@H]4COc5ccccc5O4)cc3)CC2)C1=O and give its measured IC50.
Key: 370

Exercise: Consider the compound c1ccc2c(c1)OCC(c1ccc(CN3CCCOCC3)cc1)O2 (racemic) and give its measured IC50.
Key: 1800

Exercise: Consider the compound CCN(C)Cc1ccc([C@H]2COc3ccccc3O2)cc1 and give its measured IC50.
Key: 1000

Exercise: Consider the compound O=C(O)C1CCN(Cc2ccc([C@H]3COc4cccnc4O3)cc2)CC1 and give its measured IC50.
Key: 160

Exercise: Consider the compound c1cnc2c(c1)OC[C@H](c1ccc(CNC3CCC3)cc1)O2 and give its measured IC50.
Key: 730

Exercise: Consider the compound N#CCN1CCCC12CCN(Cc1ccc([C@H]3COc4ccccc4O3)cc1)C2 (some centres unmarked) and give its measured IC50.
Key: 2450

Exercise: Consider the compound c1ccc2c(c1)OCC(c1ccc(CNCC3CC3)cc1)O2 (racemic) and give its measured IC50.
Key: 4420

Exercise: Consider the compound CC(=O)N1CCN(Cc2ccc([C@H]3COc4cccnc4O3)cc2)CC1 and give its measured IC50.
Key: 590

Exercise: Consider the compound O=C1NCCC12CCN(Cc1ccc([C@H]3COc4ccccc4O3)cc1)CC2 (single isomer, unassigned) and give its measured IC50.
Key: 150
